study-system: (Lyso)-N-acylphosphatidylethanolamine lipase (Mus musculus)
assay-comment: ABHD4 inhibitors, retest, confirmation, biochemical, fluorescence polarization, mouse (AID 720658);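 further: 0% = wild-type ABHD4 with DMSO and 100% = catalytically dead S159A mutant with DMSO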
conditions-used: purified mABHD4, FP-Rh probe fluorescence polarization; at 8.92 µM; hits give high values
The list shows a part of the results.
test-readout: inhibition (%)

INSERT INTO results (structure, test_readout, result_units, measured_value) VALUES
  ('Cc1cccc(N2CCN(c3ccc(NC(=O)/C=C\C(=O)O)cc3)CC2)c1', 'inhibition', '%', 0.64),
  ('CNC(=S)NNC(=O)c1oc2nc(-c3ccccc3)cc(-c3ccco3)c2c1N', 'inhibition', '%', 17.5),
  ('COc1ccc(Br)cc1/C=N/Nc1ccc(Cl)c(C(=O)O)c1', 'inhibition', '%', 32.5),
  ('O=C(O)c1ccc2c(c1)C(=O)N(c1ccc(/C=C/C(=O)c3ccccc3)cc1)C2=O', 'inhibition', '%', 0.6),
  ('Clc1ccc(C2=CSC3=Nc4cccc5cccc(c45)N23)cc1', 'inhibition', '%', 37.5),
  ('COCCOC(=O)c1sc(=S)n(CCOC)c1N', 'inhibition', '%', 47.4);

// provenance: PubChem BioAssay
